test system: Trypanosoma brucei rhodesiense; assay: Antimicrobial activity against blood stream form of Trypanosoma brucei rhodesiense STIB 900 after 72 hrs by Alamar blue assay; type: functional, organism-based; details: STIB 900, 72 h
pIC50: −log10 of the molar value.
Each entry below carries its recorded pIC50.

smiles.data: O=[N+]([O-])c1ncn(CCCNc2nc3ccccc3s2)n1
pIC50: 6.02

smiles.data: O=[N+]([O-])c1nccn1CCCNc1nc2ccccc2s1
pIC50: 4.28

smiles.data: Cc1ccc(N2CCN(CCCn3cnc([N+](=O)[O-])n3)CC2)cc1.Cl.Cl
pIC50: 4.62

smiles.data: Cl.Cl.Cl.Cl.O=[N+]([O-])c1ncn(CCCN2CCN(c3ccc(Cl)c(Cl)c3)CC2)n1
pIC50: 6.64

smiles.data: Cl.Cl.N#Cc1ccccc1N1CCN(CCCn2cnc([N+](=O)[O-])n2)CC1
pIC50: 4.98

smiles.data: Cl.Cl.Cl.Cl.O=[N+]([O-])c1nccn1CCCN1CCN(Cc2ccc(Cl)c(Cl)c2)CC1
pIC50: 4.97

smiles.data: COc1ccc(N2CCN(CCCn3cnc([N+](=O)[O-])n3)CC2)cc1.Cl.Cl
pIC50: 4.45

smiles.data: O=[N+]([O-])c1ncn(CCCCNc2nc3ccc(Cl)cc3s2)n1
pIC50: 6.45

smiles.data: Cl.Cl.O=[N+]([O-])c1ncn(CCCN2CCN(c3ncccn3)CC2)n1
pIC50: 4.30

smiles.data: Cl.Cl.O=[N+]([O-])c1ncn(CCCN2CCN(c3ccccn3)CC2)n1
pIC50: 4.45

smiles.data: O=[N+]([O-])c1nccn1CCCCNc1nc2ccc(Cl)cc2s1
pIC50: 5.41

smiles.data: O=[N+]([O-])c1ncn(CCCNc2nc3ccc(Cl)cc3s2)n1
pIC50: 6.69

smiles.data: Cl.Cl.Cl.Cl.O=[N+]([O-])c1ncn(CCCN2CCN(Cc3ccc(Cl)c(Cl)c3)CC2)n1
pIC50: 6.11

smiles.data: O=[N+]([O-])c1nccn1CCCNc1nc2ccc(Cl)cc2s1
pIC50: 5.12

smiles.data: COc1ccc(N2CCN(CCCn3ccnc3[N+](=O)[O-])CC2)cc1.Cl.Cl
pIC50: 4.20

smiles.data: O=[N+]([O-])c1ncn(CCCN2CCN(c3ccncc3)CC2)n1
pIC50: 5.87

smiles.data: Cl.O=C(C1CC1)N1CCN(CCCn2cnc([N+](=O)[O-])n2)CC1
pIC50: 4.81

###

assay: Selectivity index, ratio of IC50 for rat L6 cells to IC50 for Leishmania donovani MHOM-ET-67/L82 amastigotes; type: toxicity, cell-based; conditions: read-out: Ratio IC50
// reported selectivity ratio per item

smiles.data: O=[N+]([O-])c1ncn(CCCNc2nc3ccccc3s2)n1
qualifier.operator: =
selectivity ratio: 8.1

smiles.data: Cl.O=C(C1CC1)N1CCN(CCCn2cnc([N+](=O)[O-])n2)CC1
qualifier.operator: <
selectivity ratio: 1

smiles.data: Cl.Cl.N#Cc1ccccc1N1CCN(CCCn2cnc([N+](=O)[O-])n2)CC1
qualifier.operator: <
selectivity ratio: 1

smiles.data: Cl.Cl.Cl.Cl.O=[N+]([O-])c1ncn(CCCN2CCN(c3ccc(Cl)c(Cl)c3)CC2)n1
qualifier.operator: =
selectivity ratio: 3.7

smiles.data: Cl.Cl.Cl.Cl.O=[N+]([O-])c1nccn1CCCN1CCN(Cc2ccc(Cl)c(Cl)c2)CC1
qualifier.operator: <
selectivity ratio: 1

smiles.data: COc1ccc(N2CCN(CCCn3ccnc3[N+](=O)[O-])CC2)cc1.Cl.Cl
qualifier.operator: <
selectivity ratio: 1

smiles.data: O=[N+]([O-])c1nccn1CCCNc1nc2ccc(Cl)cc2s1
qualifier.operator: =
selectivity ratio: 11.6

smiles.data: Cl.Cl.Cl.Cl.O=[N+]([O-])c1ncn(CCCN2CCN(Cc3ccc(Cl)c(Cl)c3)CC2)n1
qualifier.operator: =
selectivity ratio: 1.4

smiles.data: O=[N+]([O-])c1nccn1CCCCNc1nc2ccc(Cl)cc2s1
qualifier.operator: =
selectivity ratio: 5.5

smiles.data: O=[N+]([O-])c1ncn(CCCCNc2nc3ccc(Cl)cc3s2)n1
qualifier.operator: =
selectivity ratio: 10.9
